B1: Azoarcus group I ribozyme (parent)
chain: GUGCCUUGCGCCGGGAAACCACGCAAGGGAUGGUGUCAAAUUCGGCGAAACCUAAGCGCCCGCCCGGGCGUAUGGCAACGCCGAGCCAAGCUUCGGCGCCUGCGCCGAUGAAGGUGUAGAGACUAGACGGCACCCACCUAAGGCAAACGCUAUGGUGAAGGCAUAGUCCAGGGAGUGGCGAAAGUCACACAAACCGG

- Variants of: B1
- measurement protocol: reverse-splicing fitness (ratio to wild type); higher = more active; in vitro selection; Mg2+ level not given
endpoint: reverse-splicing fitness

C82G A111U A120G A145C C150G U176C; 0.0105

Can you look up the measured reverse-splicing fitness of C82G A111C A120G A145G C150U C169U U176G for me?
0.00501

Can you look up the measured reverse-splicing fitness of C82U A111U A120G C169A for me?
0.00883

Can you look up the measured reverse-splicing fitness of C82A A120U A145C C169A for me?
0.00194

Can you look up the measured reverse-splicing fitness of C82U A111G A120G A145C C150A C169U for me?
0.00634

Can you look up the measured reverse-splicing fitness of C82G A120C A145C C150G C169A U176G for me?
0.00496

Can you look up the measured reverse-splicing fitness of C82A A111C A120C C150G C169U U176A for me?
0.00611

Can you look up the measured reverse-splicing fitness of C82U A111G A120C A145C C150A C169G for me?
0.00759
